assay: NCI Yeast Anticancer Drug Screen. Data for the sgs1 mgt1 strain (AID 161); details: S. cerevisiae sgs1 mgt1 strain, at 50.0 µM (retest, dose inferred, filed as 5.0)
This is part of a sample that, as a whole, favours compounds with a hit. Of some 79,000 tested, about 15% had one in any assay. Calls of active or inactive are those of the source. No stated cut-off is given here; in the data, active means growth inhibition above about 70%; inactive means the rest.
Classes used: active, inactive

# compound, category
records = [
    ("Oc1ccc(-c2ccccc2)cc1Cl", "active"),
    ("CCN(CCO)CC1OC(OC)C2OC(C)(C)OC12 (stereo not given)", "active"),
    ("O=C(Nn1cc(F)c(=O)[nH]c1=O)C12CC3CC(CC(C3)C1)C2", "active"),
    ("COc1cc(Cc2n[nH]c(=S)n2-c2ccccc2)c(S(N)(=O)=O)cc1OC", "inactive"),
    ("CCCCCCCCCCCCCCCCP(=O)([O-])OCC[N+](C)(C)C", "active"),
    ("Cc1c(Cl)c(S(N)(=O)=O)cc2c1NC=NS2(=O)=O", "inactive"),
    ("CCC[CH2][Sn]([S][Sn]([CH2]CCC)([c]1ccccc1)[c]1ccccc1)([c]1ccccc1)[c]1ccccc1", "active"),
    ("CCCCC(C)(C)OC(=O)Nc1ccc(Br)cc1", "active"),
    ("COc1ccc2nc(-c3ccc(Cl)cc3)[nH]c2c1", "active"),
    ("Cc1[nH]c2ccccc2c1SCc1ccccc1", "active"),
    ("Cc1ccc(-n2cc(-c3ccc(Cl)cc3)c3c(NN)ncnc32)cc1", "inactive"),
    ("CC1CN(CCCN2c3ccccc3Sc3ccc(Cl)cc32)C(C)(C)C1 (stereo not given)", "active"),
    ("COc1ccc(C2=NN(c3ccccc3)C[N+](c3ccc(OC)cc3)=N2)cc1", "inactive"),
    ("O=C1c2ccccc2-c2cc(S)c([N+](=O)[O-])cc21", "inactive"),
    ("CN(O)C(=S)c1ccccc1", "active"),
    ("N#Cc1c(N)nc2c(N=Nc3ccccc3)c(N)nn2c1Nc1ccccc1", "active"),
    ("CCCCC(CC)CN1C(=O)C2C3C=CC(C3)C2C1=O (stereo not given)", "inactive"),
    ("CCCCCCCCCCCC[N+](C)(CCS(=O)(=O)[O-])Cc1ccccc1 (stereo not given)", "inactive"),
    ("Cc1ccc(S(=O)(=O)C(Br)CC(=O)c2ccccc2)cc1 (stereo not given)", "active"),
    ("Cc1ccc(S(=O)(=O)N/N=C/Cc2ccccc2)cc1", "active"),
    ("C/C(=N/NC(=S)NCc1ccccc1)c1ncccn1", "active"),
    ("O=C1c2cccc3cccc(c23)C1(Br)Br", "active"),
    ("CC(CO)(CO)Cc1ccccc1", "inactive"),
    ("CC(=O)O/C=C1\\c2ccccc2CCC1c1ccc2ccccc2c1 (stereo not given)", "inactive"),
    ("O=C1/C(=C/c2ccc(Cl)cc2)CSC/C1=C\\c1ccc(Cl)cc1", "inactive"),
    ("O=C(Nc1cccc2ccccc12)OCC1CCc2ccccc2C1 (stereo not given)", "inactive"),
    ("[Cl][Pt+2][Cl].[NH-]CC1(C[NH-])CCCC1", "inactive"),
    ("CC(C)CCCOC(=O)c1cc([N+](=O)[O-])cc([N+](=O)[O-])c1", "inactive"),
    ("Nc1ccccc1/C=C/c1c[nH]c2ccccc12", "active"),
    ("CCC(CC)(c1ccc(C)cc1)c1ccc(C)cc1", "active"),
    ("CCC1(CC)COC(C)(C(=O)O)OC1", "inactive"),
    ("CS(=O)(=O)Nc1ccc(Nc2c3ccccc3nc3ccccc23)cc1", "inactive"),
    ("O=S(=O)(O)C(O)c1ccc2ccc3cccc4ccc1c2c34 (stereo not given)", "active"),
    ("Oc1ccc(N=Nc2cc(Cl)ccc2Cl)cc1", "active"),
    ("COc1ccc(C23OCCN2C(=O)c2ccccc23)cc1 (stereo not given)", "inactive"),
    ("CCOC(=O)C(=N\\Nc1cccc(C)c1C)/C(C)=N\\NC(N)=S", "active"),
    ("Cc1ccc(OS(=O)(=O)c2ccc(Br)cc2)cc1", "inactive"),
    ("COC(=O)CSc1nc2[nH]c(SC)c(C(N)=O)c2c(=O)n1-c1ccccc1", "inactive"),
    ("N#CC1(C#N)C(C#N)(C#N)C12CCC2", "active"),
    ("C/C(=N\\NC(=S)Nc1ccc(C(=O)O)cc1C)c1ccc2ccccc2n1", "inactive"),
    ("Cc1cc(N)c(C)c2c1[nH]c1ccc(Br)cc12", "active"),
    ("N#CC#Cc1cccc(C#CC#N)c1", "active"),
    ("CC(O)c1c2ccccc2cc2ccccc12 (stereo not given)", "active"),
    ("Cc1ccc(NC(=O)CCc2nnc(N)n2N)cc1", "inactive"),
    ("CCOC(=O)C1=NNC(C(=O)c2ccccc2)C1c1ccccc1 (stereo not given)", "active"),
    ("S=C(Nc1ccccc1)NC1CC2C=CC1CC2 (stereo not given)", "inactive"),
    ("CC(C)=CCC/C(C)=C/COC(=O)Nc1ccccc1", "inactive"),
    ("COc1c2c3c(ccnc3c3ccccc13)C(=O)N2C", "active"),
    ("O=c1c(Cl)nsnc1Cl", "active"),
    ("C=Cc1cc(=O)oc2cc(OC)ccc12", "active"),
]
